The reader will find IC50 measurements below, all made with full-length MALT1 protein (Strep-MALT1(1-824)-His) (Homo sapiens (Human)).
outcome.measure: IC50 (nM)

Example entries begin here.
[
  {
    "molecule": "Nc1nccc2c(-n3ncc(C(=O)Nc4cnc(-n5nccn5)c(Cl)c4)c3C(F)(F)F)cccc12",
    "val": 646
  },
  {
    "molecule": "Cc1cc(NC(=O)c2cnn(-c3cncc4ccccc34)c2C(F)(F)F)cc(C(F)(F)F)n1",
    "val": 724
  },
  {
    "molecule": "Cc1nc(-n2nccn2)c(C#N)cc1NC(=O)c1cnn(-c2cnc(N)c3ccccc23)c1C(F)(F)F",
    "val": 58
  },
  {
    "molecule": "Cc1nc(-n2nccn2)c(Cl)cc1NC(=O)c1cnn(-c2cnc(C(N)=O)c3sccc23)c1C(F)(F)F",
    "val": 12
  },
  {
    "molecule": "CN1CCN(c2ncc(NC(=O)c3cnn(-c4cccc5ncccc45)c3C(F)(F)F)cc2C#N)CC1",
    "val": 1660
  }
]

a. Cc1nc(-n2cccn2)c(Cl)cc1NC(=O)c1cnn(-c2cccc3c(=O)[nH]ccc23)c1C(F)(F)F
b. O=C(Nc1cnc(-n2nccn2)c(Cl)c1)c1cnn(-c2cccc3c(C4CCN4)nccc23)c1C(F)(F)F (centres unmarked)
Pick one: a or b . Which has the bigger IC50 number? Could you answer with the label of the item you picked? b
(b: 5890 nM, a: 135 nM)

----------
- test.target: full-length MALT1 protein (Strep-MALT1(1-824)-His) (Homo sapiens (Human), UniProt Q9UDY8)
- Sequence (Q9UDY8 whole entry): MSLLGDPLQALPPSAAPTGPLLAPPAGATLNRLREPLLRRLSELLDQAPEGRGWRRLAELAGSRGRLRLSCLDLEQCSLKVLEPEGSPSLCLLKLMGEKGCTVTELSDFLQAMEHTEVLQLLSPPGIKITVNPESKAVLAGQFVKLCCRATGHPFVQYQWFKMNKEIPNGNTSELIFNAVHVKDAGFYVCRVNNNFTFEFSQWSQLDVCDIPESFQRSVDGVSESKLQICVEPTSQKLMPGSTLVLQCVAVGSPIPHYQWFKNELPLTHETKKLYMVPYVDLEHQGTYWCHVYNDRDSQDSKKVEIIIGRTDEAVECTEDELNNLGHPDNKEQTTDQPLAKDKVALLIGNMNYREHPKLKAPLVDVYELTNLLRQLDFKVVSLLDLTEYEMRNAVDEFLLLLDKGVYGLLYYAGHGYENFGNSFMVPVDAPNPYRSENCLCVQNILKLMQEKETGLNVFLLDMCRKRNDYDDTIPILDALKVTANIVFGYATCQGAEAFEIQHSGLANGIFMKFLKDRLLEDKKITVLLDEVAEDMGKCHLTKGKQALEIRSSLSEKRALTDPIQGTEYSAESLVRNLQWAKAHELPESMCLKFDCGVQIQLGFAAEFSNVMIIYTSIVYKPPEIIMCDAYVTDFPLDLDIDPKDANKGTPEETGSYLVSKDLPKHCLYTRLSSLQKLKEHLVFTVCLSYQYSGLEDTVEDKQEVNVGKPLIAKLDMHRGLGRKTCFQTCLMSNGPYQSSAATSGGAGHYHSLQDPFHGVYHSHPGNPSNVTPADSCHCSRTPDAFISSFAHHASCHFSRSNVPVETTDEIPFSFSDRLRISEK
outcome.measure: IC50 (µM)

Example entries begin here.
[
  {
    "test.smiles": "N#Cc1ncc(-n2ncc(C(=O)Nc3cnc(-n4nccn4)c(Cl)c3)c2C(F)(F)F)c2ccsc12",
    "unit": "µM",
    "IC50": 0.054
  },
  {
    "test.smiles": "O=C(Nc1cnc(-n2cc(CO)cn2)c(Cl)c1)c1cnn(-c2cccc3ncccc23)c1C(F)(F)F",
    "unit": "µM",
    "IC50": 0.021
  },
  {
    "test.smiles": "O=C(Nc1cnc(-c2ncco2)c(Cl)c1)c1cnn(-c2cncc3ccccc23)c1C(F)(F)F",
    "unit": "µM",
    "IC50": 0.02
  }
]

I. O=C(Nc1ccc(-n2cc(CO)cn2)c(Cl)c1)c1cnn(-c2cccc3ncccc23)c1C(F)(F)F
II. N#Cc1cc(NC(=O)c2cnn(-c3nccn4ccnc34)c2C(F)(F)F)cnc1-n1nccn1
III. O=C(Nc1cnc(-n2nccn2)c(Cl)c1)c1cnn(-c2cncc3c(F)cccc23)c1C(F)(F)F
Task field, ranking: reported IC50, descending order. State the ranking by listing the labels in the requested order. II, I, III
(II: 1.51 µM, I: 0.047 µM, III: 0.013 µM)

----------
- System: IL10 secretion by TMD8 ABC-DLBCL cells
- protocol: Human IL10 Mesoscale assay (TMD-8)
- Assay type: cell-based
- condition.label: Homo sapiens, TMD8; TMD-8 cells, 24 h
outcome.measure: IC50 (nM)

P. Cc1cc(NC(=O)c2cnn(-c3cccc4ncccc34)c2C(F)(F)F)ccc1-n1cc(CN)cn1 [Cpd 238]
Q. O=C(Nc1cnc(-n2nccn2)c(Cl)c1)c1cnn(-c2nccn3cccc23)c1C(F)(F)F [Cpd 147]
R. Cn1ncc(-c2ncc(NC(=O)c3cnn(-c4cccc5ncccc45)c3C(F)(F)F)cc2C#N)n1 [Cpd 257]
S. N#Cc1cc(NC(=O)c2cnn(-c3ncnc4ccsc34)c2C(F)(F)F)cnc1-n1nccn1 [Cpd 315]
Method: rank(items above, key=IC50, ascending=True) State the ranking by listing the labels in the requested order. P, Q, S, R
(P: 50 nM, Q: 85 nM, S: 339 nM, R: 646 nM)

P. O=C(Nc1cnc(-n2nccn2)c(Cl)c1)c1cnn(-c2cccc3nnsc23)c1C(F)(F)F [Cpd 120]
Q. Cc1cn2c(-n3ncc(C(=O)Nc4ccnc(C(F)(F)F)c4)c3C(F)(F)F)cccc2n1 [Cpd 206]
Pick one: P or Q . Which has the bigger IC50 number? Could you answer with the label of the item you picked? Q
